- tgt: HSD17B13 (Homo sapiens (Human), UniProt Q7Z5P4)
- Sequence (Q7Z5P4 other isoform, or with tags, fused parts or gaps): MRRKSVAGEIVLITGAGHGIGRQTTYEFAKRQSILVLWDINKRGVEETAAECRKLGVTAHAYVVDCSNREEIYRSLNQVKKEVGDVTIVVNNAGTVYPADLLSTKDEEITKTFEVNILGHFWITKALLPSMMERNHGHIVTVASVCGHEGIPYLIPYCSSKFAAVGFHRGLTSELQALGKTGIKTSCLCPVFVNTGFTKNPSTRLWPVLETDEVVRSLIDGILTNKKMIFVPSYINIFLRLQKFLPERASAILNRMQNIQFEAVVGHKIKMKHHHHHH
- assay_method_text: HSD17B13 enzymatic inhibition assay (150 nM or 50 nM HSD17B13)
- Type: biochemical
- run_conditions: 50 nM HSD17B13; read-out: Inhibition of 50 nM of HSD17B13 IC50
Catalogue of molecules with associated log10 IC50
Remember, log10 of IC50, in nM.

Past entries and their recorded results:
Cc1ccc2c(c1)OC(C)C2NC(=O)c1ccc(C(F)(F)F)[nH]c1=O (stereo not drawn)    3.33
CCc1ccc2c(c1)C(NC(=O)c1ccc(C(F)(F)F)[nH]c1=O)c1ccccc1O2 (stereo not drawn)    2.26
CCCc1cc(C(=O)NC2c3ccc(Cl)cc3Oc3cc(Cl)ccc32)c(=O)[nH]c1C(F)(F)F    1.78
COc1ccccc1C(NC(=O)c1ccc(C(F)(F)F)[nH]c1=O)c1cccc(C)c1 (stereo not drawn)    3.33
Cc1ccc2c(c1)C(NC(=O)c1ccc(C(F)(F)F)[nH]c1=O)CC(C)O2 (stereo not drawn)    2.41
O=C(Cc1ccccc1)Nc1ccc(C(NC(=O)c2ccc(C(F)(F)F)[nH]c2=O)c2ccccc2)cc1 (stereo not drawn)    3.14

Lookup result for O=C(NC(c1ccccc1)c1ccc2c(c1)OCCC2)c1ccc(C(F)(F)F)[nH]c1=O (stereo not drawn) ; measured log10 IC50: 3.04

Lookup result for O=C(NC1c2ccccc2Oc2cc(C3CCC3)ccc21)c1ccc(C(F)(F)F)[nH]c1=O (stereo not drawn) ; measured log10 IC50: 2.46

Lookup result for O=C(NC(c1ccccc1)c1ccc(C2=CCCC2)cc1)c1ccc(C(F)(F)F)[nH]c1=O (stereo not drawn) ; measured log10 IC50: 2.66

Lookup result for CC1CC(NC(=O)c2ccc(C(F)(F)F)[nH]c2=O)c2ccccc2O1 (stereo not drawn) ; measured log10 IC50: 3.64

Lookup result for Nc1ccc(CSc2ncc(C(=O)NC3c4ccc(Cl)cc4Oc4cc(Cl)ccc43)c(=O)[nH]2)cc1C(F)(F)F ; measured log10 IC50: 2.79

Lookup result for Cc1ccc2c(c1)Oc1ccccc1C2NC(=O)c1c(C)cc(C(F)(F)F)[nH]c1=O (stereo not drawn) ; measured log10 IC50: 2.60

---

- assay_method_text: Microsome stability assay, mouse liver microsomes
- Format: in vitro ADME
- run_conditions: mouse, mouse liver microsomes, pooled; 1 μM compound, 0.5 mg/mL microsomal protein, NADPH, 37° C.; read-out: Microsome Stability Mouse liver microsomes Cl
assay_endpoint: microsomal CLint at 1 h, 1 µM
Note: a bare number is incomplete; add the unit.

Past entries and their recorded results:
Cc1ccc(C(CC2CCC2)NC(=O)c2ccc(C(F)(F)F)[nH]c2=O)cc1 (stereo not drawn)    14.4 µL/min/mg
COc1ccc2c(c1)CCCC2NC(=O)c1ccc(C(F)(F)F)[nH]c1=O (stereo not drawn)    303 µL/min/mg
O=C(NC(c1ccccc1)c1ccccc1)c1ccc(C(F)(F)F)[nH]c1=O    42.4 µL/min/mg

Lookup result for Cc1ccc(C(CC2CC2)NC(=O)c2ccc(C(F)(F)F)[nH]c2=O)cc1 (stereo not drawn) ; measured microsomal CLint at 1 h, 1 µM: 182 µL/min/mg

Lookup result for Cc1ccc2c(c1)CCC(C)C2NC(=O)c1ccc(C(F)(F)F)[nH]c1=O (stereo not drawn) ; measured microsomal CLint at 1 h, 1 µM: 33.4 µL/min/mg

Lookup result for Cc1ccc2c(c1)Sc1cc(C)ccc1C2NC(=O)c1ccc(C(F)(F)F)[nH]c1=O ; measured microsomal CLint at 1 h, 1 µM: 41.7 µL/min/mg

Lookup result for O=C(NC(c1ccc(Cl)cc1)c1ccc(Cl)cc1)c1ccc(C(F)(F)F)[nH]c1=O ; measured microsomal CLint at 1 h, 1 µM: 10.2 µL/min/mg

Lookup result for COc1ccc2c(c1)Oc1cc(OC)ccc1C2NC(=O)c1ccc(C(F)F)[nH]c1=O ; measured microsomal CLint at 1 h, 1 µM: 31 µL/min/mg

Lookup result for CCC1Cc2cc(OC)ccc2C1NC(=O)c1ccc(C(F)(F)F)[nH]c1=O (stereo not drawn) ; measured microsomal CLint at 1 h, 1 µM: 12.7 µL/min/mg

---

- tgt: HSD17B13 (Homo sapiens (Human), UniProt Q7Z5P4)
- assay_method_text: HSD17B13 enzymatic inhibition assay (150 nM or 50 nM HSD17B13)
- Type: biochemical
- run_conditions: 50 nM HSD17B13; read-out: Inhibition of 50 nM of HSD17B13 IC50
Catalogue of compounds with associated pIC50
Would you please state pIC50, meaning minus log10 of the concentration in mol/L, as a bare number?

CCCc1sc2cc(C)ccc2c1NC(=O)c1ccc(C(F)(F)F)[nH]c1=O    7.15
CCc1cc(C(=O)NC2c3ccc(Cl)cc3Oc3cc(Cl)ccc32)c(=O)[nH]c1C(F)(F)F    6.85
Cc1ccc(C(CC2CCCO2)NC(=O)c2ccc(C(F)(F)F)[nH]c2=O)cc1 (stereo not shown)    5.80
Cc1ccc2c(c1)-c1cc(C)ccc1C2NC(=O)c1ccc(C(F)(F)F)[nH]c1=O    6.31
CCN1CCN(c2cc(C(=O)NC3c4ccc(C)cc4Oc4cc(C)ccc43)c(=O)[nH]c2C(F)(F)F)CC1    7.05

Lookup result for O=C(NC(c1ccccc1)c1ccc2c(c1)CCO2)c1ccc(C(F)(F)F)[nH]c1=O (stereo not shown) ; measured pIC50: 6.04

Lookup result for O=C(NC1c2ccncc2Oc2ccc(O)cc21)c1ccc(C(F)(F)F)[nH]c1=O (stereo not shown) ; measured pIC50: 5.14

Lookup result for O=C(NC1c2ccccc2Oc2cccnc21)c1ccc(C(F)(F)F)[nH]c1=O (stereo not shown) ; measured pIC50: 6.22

---

- tgt: HSD17B13 (Homo sapiens (Human))
- assay_method_text: HSD17B13 enzymatic inhibition assay (150 nM or 50 nM HSD17B13)
- Assay type: biochemical
- run_conditions: 50 nM HSD17B13; read-out: Inhibition of 50 nM of HSD17B13 IC50
Could you please classify the records by IC50 using these ranges: low = under 100 nM, intermediate = from 100 nM up to 500 nM, high = 500 nM and over

Which class holds O=C(NC1c2ccccc2S(=O)(=O)c2ccc(CC(F)(F)F)cc21)c1ccc(C(F)(F)F)[nH]c1=O (stereo not drawn) ?
intermediate

Which class holds Cc1ccc2c(c1)Sc1cc(C)ccc1C2NC(=O)c1cc(N2CCN(C)CC2)c(C(F)(F)F)[nH]c1=O ?
intermediate

Which class holds CCc1cc(C(=O)NC(c2ccc(C)cc2)c2ccc(C)cc2)c(=O)[nH]c1C(F)(F)F ?
intermediate

---

- assay_method_text: Microsome stability assay, mouse liver microsomes
- Format: in vitro ADME
- run_conditions: mouse, mouse liver microsomes, pooled; 1 μM compound, 0.5 mg/mL microsomal protein, NADPH, 37° C.; read-out: Microsome Stability Mouse liver microsomes Cl
assay_endpoint: microsomal CLint at 1 μM

Past entries and their recorded results:
CCC1CCc2cc(O)ccc2C1NC(=O)c1ccc(C(F)(F)F)[nH]c1=O (stereo not shown)    < 9.6 µL/min/mg
CCC[C@@H]1C[C@@H](NC(=O)c2ccc(C(F)(F)F)[nH]c2=O)c2cc(C)ccc2N1    19.2 µL/min/mg

Lookup result for CCC[C@@H]1C[C@@H](NC(=O)c2ccc(C(F)(F)F)[nH]c2=O)c2ccc(C)cc2N1 ; measured microsomal CLint at 1 μM: < 9.6 µL/min/mg

Lookup result for Nc1cccc2c1CCCC2NC(=O)c1ccc(C(F)(F)F)[nH]c1=O (stereo not shown) ; measured microsomal CLint at 1 μM: < 9.6 µL/min/mg

Lookup result for Cc1ccc2c(c1)[C@@H](O)CC[C@H]2NC(=O)c1ccc(C(F)(F)F)[nH]c1=O ; measured microsomal CLint at 1 μM: < 9.6 µL/min/mg

Lookup result for O=C(NC1CCCc2c(O)cccc21)c1ccc(C(F)(F)F)[nH]c1=O (stereo not shown) ; measured microsomal CLint at 1 μM: < 9.6 µL/min/mg

Lookup result for Cc1ccc2c(c1)Oc1cc(Cl)ccc1C2NC(=O)c1ccc(C(F)(F)F)[nH]c1=O (stereo not shown) ; measured microsomal CLint at 1 μM: < 9.6 µL/min/mg

Lookup result for O=C(Nc1cccc2c(O)cccc12)c1ccc(C(F)(F)F)[nH]c1=O ; measured microsomal CLint at 1 μM: < 9.6 µL/min/mg

Lookup result for CCC[C@H]1Oc2ccc(C)cc2[C@@H]1NC(=O)c1ccc(C(F)(F)F)[nH]c1=O ; measured microsomal CLint at 1 μM: 41.2 µL/min/mg

Lookup result for Cc1ccc2c(c1)Oc1cc(C)ccc1C2NC(=O)c1ccc(C(F)(F)F)[nH]c1=O ; measured microsomal CLint at 1 μM: < 9.6 µL/min/mg

Lookup result for Cc1ccc2c(c1)Sc1cc(C)ccc1C2NC(=O)c1cc(-c2ccccn2)c(C(F)(F)F)[nH]c1=O ; measured microsomal CLint at 1 μM: < 9.6 µL/min/mg

---

Catalogue of compounds with associated IC50
- tgt: HSD17B1 (Homo sapiens (Human))
- Sequence (P14061 other isoform, or with tags, fused parts or gaps): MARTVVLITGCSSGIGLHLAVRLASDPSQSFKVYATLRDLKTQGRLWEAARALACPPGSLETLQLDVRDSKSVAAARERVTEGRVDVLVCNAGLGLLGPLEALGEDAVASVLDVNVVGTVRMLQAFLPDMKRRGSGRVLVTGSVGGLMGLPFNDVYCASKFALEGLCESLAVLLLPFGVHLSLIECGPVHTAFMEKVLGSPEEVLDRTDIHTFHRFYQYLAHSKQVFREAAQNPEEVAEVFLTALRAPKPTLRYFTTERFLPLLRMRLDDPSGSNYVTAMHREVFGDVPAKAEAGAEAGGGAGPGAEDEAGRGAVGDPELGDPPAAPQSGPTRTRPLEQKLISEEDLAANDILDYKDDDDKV
- assay_method_text: HSD17B1 enzymatic blocking assay
- Type: biochemical
- run_conditions: 25 μM Estradiol, 500 μM NAD; read-out: Inhibition of HSD17B1 IC50

CCC1Cc2cc(C)ccc2C1NC(=O)c1ccc(C(F)(F)F)[nH]c1=O (centres unmarked)    > 30 µM
CCC[C@@H]1Oc2ccc(C)cc2[C@@H]1NC(=O)c1ccc(C(F)(F)F)[nH]c1=O    > 30 µM
N#Cc1ccc(C(NC(=O)c2ccc(C(F)(F)F)[nH]c2=O)c2ccccc2)cc1 (centres unmarked) [Compound 12A]    > 30 µM
Cc1ccc2c(c1)OC1CCCCC1C2NC(=O)c1ccc(C(F)(F)F)[nH]c1=O (centres unmarked)    > 30 µM

Lookup result for Cc1ccc2c(c1)Sc1cc(C)ccc1C2NC(=O)c1ccc(C(F)F)[nH]c1=O ; measured IC50: > 30 µM
